# IC50 listing for each entry below
system.name: PI3Kδ (Homo sapiens)
Construct: purchased Millipore 14-604-K
Sequence (O00329 whole entry): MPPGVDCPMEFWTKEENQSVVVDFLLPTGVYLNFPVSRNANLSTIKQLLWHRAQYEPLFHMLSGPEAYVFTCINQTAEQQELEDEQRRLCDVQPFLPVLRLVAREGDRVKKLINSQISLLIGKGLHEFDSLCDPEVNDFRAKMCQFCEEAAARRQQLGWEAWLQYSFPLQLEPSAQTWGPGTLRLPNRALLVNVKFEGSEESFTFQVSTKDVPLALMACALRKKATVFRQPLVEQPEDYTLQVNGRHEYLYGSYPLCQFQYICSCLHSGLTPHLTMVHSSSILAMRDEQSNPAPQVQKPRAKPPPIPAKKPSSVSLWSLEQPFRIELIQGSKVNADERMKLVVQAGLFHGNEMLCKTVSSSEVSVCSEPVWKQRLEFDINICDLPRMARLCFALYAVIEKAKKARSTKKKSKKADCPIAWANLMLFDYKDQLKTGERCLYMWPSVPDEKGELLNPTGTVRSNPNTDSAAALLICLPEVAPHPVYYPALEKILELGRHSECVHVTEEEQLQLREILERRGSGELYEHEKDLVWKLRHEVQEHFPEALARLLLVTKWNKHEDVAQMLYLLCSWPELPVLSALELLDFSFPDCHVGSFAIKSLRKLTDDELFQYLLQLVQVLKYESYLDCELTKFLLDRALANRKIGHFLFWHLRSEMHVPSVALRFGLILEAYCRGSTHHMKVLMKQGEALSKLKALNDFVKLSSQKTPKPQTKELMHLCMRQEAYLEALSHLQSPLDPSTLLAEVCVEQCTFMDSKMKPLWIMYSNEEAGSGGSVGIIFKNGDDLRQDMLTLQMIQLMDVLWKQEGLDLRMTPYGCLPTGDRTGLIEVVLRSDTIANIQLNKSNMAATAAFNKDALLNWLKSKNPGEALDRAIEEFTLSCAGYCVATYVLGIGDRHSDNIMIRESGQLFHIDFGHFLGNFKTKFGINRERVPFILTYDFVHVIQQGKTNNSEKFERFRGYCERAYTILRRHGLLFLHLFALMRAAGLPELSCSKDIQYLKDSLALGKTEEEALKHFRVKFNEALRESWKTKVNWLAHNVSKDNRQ
Sequence (P27986 whole entry partner): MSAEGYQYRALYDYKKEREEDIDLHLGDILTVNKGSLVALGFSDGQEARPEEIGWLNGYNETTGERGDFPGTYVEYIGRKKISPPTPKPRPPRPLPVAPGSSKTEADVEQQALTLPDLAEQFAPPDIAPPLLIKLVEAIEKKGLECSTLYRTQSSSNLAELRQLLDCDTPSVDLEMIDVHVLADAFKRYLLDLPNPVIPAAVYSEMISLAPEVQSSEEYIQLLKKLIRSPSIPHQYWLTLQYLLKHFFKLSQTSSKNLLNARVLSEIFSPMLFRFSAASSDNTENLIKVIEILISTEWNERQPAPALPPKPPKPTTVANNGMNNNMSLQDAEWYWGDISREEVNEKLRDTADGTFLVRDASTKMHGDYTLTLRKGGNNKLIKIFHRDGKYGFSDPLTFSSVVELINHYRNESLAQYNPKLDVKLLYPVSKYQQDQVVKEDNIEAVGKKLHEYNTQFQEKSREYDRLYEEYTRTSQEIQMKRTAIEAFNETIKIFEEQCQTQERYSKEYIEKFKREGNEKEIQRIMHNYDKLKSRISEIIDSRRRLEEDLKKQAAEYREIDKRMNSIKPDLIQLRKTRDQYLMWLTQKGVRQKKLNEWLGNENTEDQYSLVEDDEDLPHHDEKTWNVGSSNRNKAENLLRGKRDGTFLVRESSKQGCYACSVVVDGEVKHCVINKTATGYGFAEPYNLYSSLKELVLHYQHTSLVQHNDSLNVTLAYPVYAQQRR
experiment.description: PI3Kδ activity inhibition (Kinase-Glo)
Format: biochemical
experimental.parameters: Table 1, graded

# count of solved cases: 5
[[record]]
smiles_representation = "COc1ccc(-c2nc(N3CCOCC3)c3nc(CN(C)c4ncc(C(=O)NO)cn4)n(C)c3n2)cn1"
measured_parameter = "IC50"
result = "100 to 1000 nM"

[[record]]
smiles_representation = "CNc1ncc(-c2nc(N3CCOCC3)c3nc(CN(C)c4ncc(C(=O)NO)cn4)n(C)c3n2)cn1"
measured_parameter = "IC50"
result = "100 to 1000 nM"

[[record]]
smiles_representation = "CN(Cc1nc2c(N3CCOCC3)nc(-c3cnc4ccccc4c3)nc2n1C)c1ncc(C(=O)NO)cn1"
measured_parameter = "IC50"
result = "> 10000 nM"

[[record]]
smiles_representation = "CCN(Cc1nc2c(N3CCOCC3)nc(-c3ccc(OC)nc3)nc2n1C)c1ncc(C(=O)NO)cn1"
measured_parameter = "IC50"
result = "100 to 1000 nM"

[[record]]
smiles_representation = "CN(Cc1nc2c(N3CCOCC3)nc(-c3ccc4[nH]ncc4c3)nc2n1C)c1ncc(C(=O)NO)cn1"
measured_parameter = "IC50"
result = "> 10000 nM"


Find the recorded IC50 belonging to CN(Cc1nc2c(N3CCOCC3)nc(-c3cnc(N)nc3)nc2n1C)c1ncc(C(=O)NO)cn1 and report it. 100 to 1000 nM

Quick one: IC50 of Cc1ncc(-c2nc(N3CCOCC3)c3nc(CN(C)c4ncc(C(=O)NO)cn4)n(C)c3n2)cn1 ? 100 to 1000 nM

Can you look up the measured IC50 of CCCN(Cc1nc2c(N3CCOCC3)nc(-c3ccc(OC)nc3)nc2n1C)c1ncc(C(=O)NO)cn1 for me? > 10000 nM

----------
system.name: PI3Kδ (Homo sapiens)
Construct: purchased Millipore 14-604-K
experiment.description: PI3Kδ activity inhibition (Kinase-Glo)
Type: biochemical
experimental.parameters: Table 4, graded
pIC50: −log10 of the molar value.
measured.parameter: pIC50

[[record]]
compound = "CN(Cc1nc2c(N3CCOCC3)nc(-c3ccncc3)nc2n1C)c1ncc(C(=O)NO)cn1"
system_name = "PI3Kδ (Homo sapiens)"
result = "< 5.00"

[[record]]
compound = "CN(Cc1nc2c(N3CCOCC3)nc(-c3cnc(N)nc3)nc2n1C)c1ncc(C(=O)NO)cn1"
system_name = "PI3Kδ (Homo sapiens)"
result = "7.00 to 9.00"

[[record]]
compound = "COc1ccc(-c2nc(N3CCOCC3)c3nc(CN(C)c4ncc(C(=O)NO)cn4)n(C)c3n2)cc1"
system_name = "PI3Kδ (Homo sapiens)"
result = "< 5.00"

[[record]]
compound = "COc1ccc(-c2nc(N3CCOCC3)c3nc(CN(C)c4ncc(C(=O)NO)cn4)n(C)c3n2)cn1"
system_name = "PI3Kδ (Homo sapiens)"
result = "6.00 to 7.00"

[[record]]
compound = "Cc1[nH]c2ccccc2c1CCNCc1ccc(/C=C/C(=O)NO)cc1 [LBH589, panobinostat, reference compound]"
system_name = "PI3Kδ (Homo sapiens)"
result = "< 5.00"


// returns reported pIC50 for input CN(Cc1nc2c(N3CCOCC3)nc(-c3ccc(N)cc3)nc2n1C)c1ncc(C(=O)NO)cn1 < 5.00

----------
system.name: PI3Kα (Homo sapiens, UniProt P42336)
Construct: purchased Invitrogen PV4788
Sequence (P42336 whole entry, species assumed, one chain of several): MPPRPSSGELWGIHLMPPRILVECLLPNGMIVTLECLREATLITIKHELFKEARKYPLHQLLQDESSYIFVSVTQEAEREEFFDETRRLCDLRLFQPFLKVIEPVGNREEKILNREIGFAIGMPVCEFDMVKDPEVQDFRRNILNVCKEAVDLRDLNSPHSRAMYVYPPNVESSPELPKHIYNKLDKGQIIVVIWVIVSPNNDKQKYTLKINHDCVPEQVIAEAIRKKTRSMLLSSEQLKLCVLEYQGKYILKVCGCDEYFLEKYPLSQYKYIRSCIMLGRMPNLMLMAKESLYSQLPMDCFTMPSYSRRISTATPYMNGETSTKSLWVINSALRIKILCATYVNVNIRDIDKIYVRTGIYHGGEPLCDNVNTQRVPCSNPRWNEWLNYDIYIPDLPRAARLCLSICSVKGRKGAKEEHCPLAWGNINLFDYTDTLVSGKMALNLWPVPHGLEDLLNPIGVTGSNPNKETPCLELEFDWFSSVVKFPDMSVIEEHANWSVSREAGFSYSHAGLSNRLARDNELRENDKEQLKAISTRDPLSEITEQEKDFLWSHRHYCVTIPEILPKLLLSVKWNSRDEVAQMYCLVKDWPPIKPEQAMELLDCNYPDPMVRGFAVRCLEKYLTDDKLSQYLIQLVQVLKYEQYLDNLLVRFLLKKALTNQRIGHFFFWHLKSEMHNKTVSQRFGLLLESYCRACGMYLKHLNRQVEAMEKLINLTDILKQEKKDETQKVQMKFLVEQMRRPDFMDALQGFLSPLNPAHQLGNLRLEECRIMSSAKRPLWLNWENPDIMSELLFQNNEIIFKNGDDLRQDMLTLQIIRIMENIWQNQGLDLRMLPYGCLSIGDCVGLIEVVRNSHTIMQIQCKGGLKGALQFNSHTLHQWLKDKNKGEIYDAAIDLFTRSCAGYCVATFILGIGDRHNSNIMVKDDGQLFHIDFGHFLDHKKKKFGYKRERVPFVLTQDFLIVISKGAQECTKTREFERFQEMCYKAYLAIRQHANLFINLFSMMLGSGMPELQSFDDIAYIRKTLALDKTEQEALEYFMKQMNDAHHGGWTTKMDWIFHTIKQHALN
experiment.description: PI3Kα activity inhibition (Kinase-Glo)
Type: biochemical
experimental.parameters: Table 4, graded; read-out: PI3Kα IC50
Description: Detecting the inhibition capability of the compound to PI3Kα and PI3Kδ activities with Kinase-Glo (purchased from Promege Company; Catalog No.: V3771). […] After incubation, adding 10 μL Kinase-Glo which has been preheated to ambient temperature into each reaction well to terminate the reaction; shaking it in dark place for 15 min after it is mixed evenly, then measuring the fluorescence intensity with a microplate reader and analyzing the result data with the software GraphPad Prism. […]
pIC50: −log10 of the molar value.
List of pIC50 values.

// below: answered compounds
[[record]]
compound = "COc1ccc(-c2nc(N3CCOCC3)c3nc(CN(C)c4ncc(C(=O)NO)cn4)n(C)c3n2)cn1"
result = "5.00 to 6.00"

[[record]]
compound = "CN(Cc1nc2c(N3CCOCC3)nc(-c3ccc(N)cc3)nc2n1C)c1ncc(C(=O)NO)cn1"
result = "5.00 to 6.00"

[[record]]
compound = "COc1ccc(-c2nc(N3CCOCC3)c3nc(CN(C)c4ncc(C(=O)NO)cn4)n(C)c3n2)cc1"
result = "< 5.00"

[[record]]
compound = "CN(Cc1nc2c(N3CCOCC3)nc(-c3cnc(N)nc3)nc2n1C)c1ncc(C(=O)NO)cn1"
result = "7.00 to 9.00"

[[record]]
compound = "CN(Cc1nc2c(N3CCOCC3)nc(-c3ccncc3)nc2n1C)c1ncc(C(=O)NO)cn1"
result = "5.00 to 6.00"


// returns reported pIC50 for input Cc1[nH]c2ccccc2c1CCNCc1ccc(/C=C/C(=O)NO)cc1 [LBH589, panobinostat, reference compound] < 5.00

----------
Known pIC50 of a selection of compounds
system.name: HDAC1 (Homo sapiens)
Construct: purchased BPS Bioscience
experiment.description: In vitro HDAC1 enzymatic activity inhibition (Lys-Ac-AMC substrate)
Type: biochemical
experimental.parameters: Table 1, graded; read-out: HDAC1 IC50
pIC50: −log10 of the molar value.

Consider the reported pIC50 for these compounds:
[[record]]
smiles_representation = "CCNc1ccc(-c2nc(N3CCOCC3)c3nc(CN(C)c4ncc(C(=O)NO)cn4)n(C)c3n2)cc1"
measured_parameter = "pIC50"
result = "> 7.00"

[[record]]
smiles_representation = "CCCN(Cc1nc2c(N3CCOCC3)nc(-c3ccc(OC)nc3)nc2n1C)c1ncc(C(=O)NO)cn1"
measured_parameter = "pIC50"
result = "6.00 to 7.00"

[[record]]
smiles_representation = "CN(Cc1nc2c(N3CCOCC3)nc(-c3cccc(OCCO)c3)nc2n1C)c1ncc(C(=O)NO)cn1"
measured_parameter = "pIC50"
result = "6.00 to 7.00"

[[record]]
smiles_representation = "COc1cc(-c2nc(N3CCOCC3)c3nc(CN(C)c4ncc(C(=O)NO)cn4)n(C)c3n2)cc(OC)c1OC"
measured_parameter = "pIC50"
result = "> 7.00"

[[record]]
smiles_representation = "CN(Cc1nc2c(N3CCOCC3)nc(-c3ccc(NS(=O)(=O)CCCCl)cc3)nc2n1C)c1ncc(C(=O)NO)cn1"
measured_parameter = "pIC50"
result = "> 7.00"


From here, focus on the item given below.
Can you look up the measured pIC50 of CN(Cc1nc2c(N3CCOCC3)nc(-c3ccc4[nH]ncc4c3)nc2n1C)c1ncc(C(=O)NO)cn1 for me? > 9.00

----------
system.name: HDAC1 (Homo sapiens, UniProt Q13547)
Construct: purchased BPS Bioscience
Sequence (Q13547 whole entry, species assumed): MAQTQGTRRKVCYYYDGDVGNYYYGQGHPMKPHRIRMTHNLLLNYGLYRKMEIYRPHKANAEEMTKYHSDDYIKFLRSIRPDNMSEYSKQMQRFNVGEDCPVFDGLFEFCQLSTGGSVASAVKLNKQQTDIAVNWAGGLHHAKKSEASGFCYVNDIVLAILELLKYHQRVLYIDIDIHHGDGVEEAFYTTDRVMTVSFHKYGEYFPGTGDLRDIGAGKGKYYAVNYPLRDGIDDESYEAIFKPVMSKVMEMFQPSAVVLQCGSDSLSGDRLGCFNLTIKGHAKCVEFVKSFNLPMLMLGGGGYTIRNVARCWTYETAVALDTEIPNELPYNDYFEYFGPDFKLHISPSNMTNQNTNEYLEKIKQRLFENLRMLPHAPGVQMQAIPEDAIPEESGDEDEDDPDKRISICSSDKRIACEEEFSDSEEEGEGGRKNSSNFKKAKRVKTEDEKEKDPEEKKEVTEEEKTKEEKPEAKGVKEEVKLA
experiment.description: In vitro HDAC1 enzymatic activity inhibition (Lys-Ac-AMC substrate)
Assay type: biochemical
experimental.parameters: Table 1, graded; read-out: HDAC1 IC50
pIC50: −log10 of the molar value.
measured.parameter: pIC50

Consider the reported pIC50 for these molecules:
[[record]]
molecule = "CC(C)COc1ccc(-c2nc(N3CCOCC3)c3nc(CN(C)c4ncc(C(=O)NO)cn4)n(C)c3n2)cc1 [CLJ-43]"
measured_parameter = "pIC50"
result = "> 7.00"

[[record]]
molecule = "CN(Cc1nc2c(N3CCOCC3)nc(-c3cncnc3)nc2n1C)c1ncc(C(=O)NO)cn1 [CLJ-10]"
measured_parameter = "pIC50"
result = "> 7.00"


Could you share which pIC50 value was measured for Cc1ccc(-c2nc(N3CCOCC3)c3nc(CN(C)c4ncc(C(=O)NO)cn4)n(C)c3n2)cc1 [CLJ-60] ? > 7.00

Fill in the blank: the reported pIC50 of CN(Cc1nc2c(N3CCOCC3)nc(-c3ccc(N)cc3)nc2n1C)c1ncc(C(=O)NO)cn1 [CLJ-44] is ____. > 9.00

----------
Test system: A2780s cells (ovarian cancer)
experiment.description: Cell proliferation inhibition, A2780s (MTT)
Format: cell-based
experimental.parameters: Homo sapiens, 96 h incubation, read-out: Proliferation IC50, Ovarian cancer A2780s
measured.parameter: IC50

[[record]]
compound = "COc1ccc(-c2nc(N3CCOCC3)c3nc(CN(C)c4ncc(C(=O)NO)cn4)n(C)c3n2)cn1 [CLJ-1]"
result = "0.1 to 10 nM"

[[record]]
compound = "Cc1ccc(-c2nc(N3CCOCC3)c3nc(CN(C)c4ncc(C(=O)NO)cn4)n(C)c3n2)cc1 [CLJ-60]"
result = "0.1 to 10 nM"

[[record]]
compound = "CCCCN(Cc1nc2c(N3CCOCC3)nc(-c3ccc4[nH]ncc4c3)nc2n1C)c1ncc(C(=O)NO)cn1 [CLJ-17]"
result = "> 1000 nM"

[[record]]
compound = "CN(Cc1nc2c(N3CCOCC3)nc(-c3ccncc3)nc2n1C)c1ncc(C(=O)NO)cn1 [CLJ-8]"
result = "0.1 to 10 nM"

[[record]]
compound = "Cc1cscc1-c1nc(N2CCOCC2)c2nc(CN(C)c3ncc(C(=O)NO)cn3)n(C)c2n1 [CLJ-23]"
result = "0.1 to 10 nM"

[[record]]
compound = "COc1ccc(-c2nc(N3CCOCC3)c3nc(CN(C)c4ncc(C(=O)NO)cn4)n(C4CCCC4)c3n2)cn1 [CLJ-4]"
result = "> 1000 nM"

[[record]]
compound = "CN(Cc1nc2c(N3CCOCC3)nc(-c3ccc(C(F)(F)F)cc3)nc2n1C)c1ncc(C(=O)NO)cn1 [CLJ-55]"
result = "10 to 100 nM"

[[record]]
compound = "COc1ccc(C(F)(F)F)cc1-c1nc(N2CCOCC2)c2nc(CN(C)c3ncc(C(=O)NO)cn3)n(C)c2n1 [CLJ-38]"
result = "10 to 100 nM"

[[record]]
compound = "CN(Cc1nc2c(N3CCOCC3)nc(-c3cc(C(F)(F)F)cc(C(F)(F)F)c3)nc2n1C)c1ncc(C(=O)NO)cn1 [CLJ-56]"
result = "100 to 1000 nM"

[[record]]
compound = "CCN(Cc1nc2c(N3CCOCC3)nc(-c3ccc(OC)nc3)nc2n1C)c1ncc(C(=O)NO)cn1 [CLJ-5]"
result = "100 to 1000 nM"


I'd like to know its IC50. The compound in question is CN(Cc1nc2c(N3CCOCC3)nc(-c3cccs3)nc2n1C)c1ncc(C(=O)NO)cn1 [CLJ-18] 10 to 100 nM

Quick one: IC50 of CN(Cc1nc2c(N3CCOCC3)nc(-c3ccc(N)nc3)nc2n1C)c1ncc(C(=O)NO)cn1 [CLJ-7] ? 10 to 100 nM
